- run.description: PK of Compound (A1) after intravenous dosing in mouse
- Format: in vivo
- condition.label: in vivo, 0.2 mg/kg, read-out: Vss
Starred links: 1 amine or outer side, 2 acyl side, 3 side chain; linkers in the order of their positions; H or OH if unused. Positions of bridges follow the written chain, without caps; N, C: chain ends. Non-standard residues stand in square brackets, D forms with d. Residues, ends and D or L forms follow the SMILES beside them. *: point of attachment. Leu(3R-OH,Nα-propionyl) = CCC(=O)N[C@H](C(=O)*)[C@H](O)C(C)C; X1 = CC(C)[C@@H](O[*:3])[C@H](N[*:1])C(=O)[*:2]; NMeT = CN[C@H](C(=O)O)[C@@H](C)O; dPhLac = O=C(O)[C@H](O)Cc1ccccc1; NMeA = CN[C@@H](C)C(=O)O; NMeDha = C=C(NC)C(=O)O
measure: Vd (L/kg)
The answer is to be given in L/kg; state only the numeric part.

Query: Vd lookup needed for C=C1C(=O)N[C@@H](C)C(=O)N(C)[C@@H](C)C(=O)N[C@@H]([C@H](OC(=O)[C@@H](NC(=O)CC)[C@H](O)C(C)C)C(C)C)C(=O)N(C)[C@@H]([C@@H](C)OC)C(=O)O[C@H](C(C)C)[C@H](NC(C)=O)C(=O)O[C@H](Cc2ccccc2)C(=O)N1C [Compound (A1)] (Ac-[X1][dPhLac][NMeDha]A[NMeA][X1](Leu(3R-OH,Nα-propionyl))[NMeT](Me); ester 1-C) , thanks.
Reply: 8.6
